# Tested on: biotinyl-Trp-oxazolone
# Experimental Details: self-aminoacylation, catalytic enhancement (BWO) (fold over background); higher = more active; k-Seq, kA / k0A0; sequences stand for … in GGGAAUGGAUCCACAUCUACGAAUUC…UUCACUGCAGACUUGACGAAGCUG
This sample holds only a part of the variants without activity.
Class (required): determined from self-aminoacylation; valid ranges are class A: < 0.8; class B: ≥ 0.8 and < 7; class C: ≥ 7

Use the examples below as a reference point.
AUGACCCUGGUCAUCUAGUGA [Fam2.1 aminoacylation ribozyme variant] ... class C
CUACUUGAAACUAUCGGUCUG [Fam1A.1 aminoacylation ribozyme variant] ... class A
AUUCACCUAGGUCAAGGGGUG [Fam2.2 aminoacylation ribozyme variant] ... class B
AAGUUUGCUAAUCGUCGCACG [Fam3.1 aminoacylation ribozyme variant] ... class B
CCACACUUCAGGCAAUCGUUC [Fam1B.1 aminoacylation ribozyme variant] ... class A
AUUACCCUGGUCAGCGAGUAA [Fam2.1 aminoacylation ribozyme variant] ... class B
AAGUGUCCUAAUAGUCGCAAG [Fam3.1 aminoacylation ribozyme variant] ... class A
AUUACCCUGAUCUUCGAGUGA [Fam2.1 aminoacylation ribozyme variant] ... class B

Problem: Exam item: assign CCACACUUCAAACAAUCAGUC [Fam1B.1 aminoacylation ribozyme variant] to the correct category.
Solution: class C

Problem: And for AUUUCCCUGGUGAUCGAGUGA [Fam2.1 aminoacylation ribozyme variant] ?
Solution: class B

Problem: How about this sequence: AUUCACCUAGGUCAUUGUGUG [Fam2.2 aminoacylation ribozyme variant]
Solution: class A

Problem: Next: ACUCACCUAGGUCUUCGGGUG [Fam2.2 aminoacylation ribozyme variant]
Solution: class B

Problem: Also AUUACCCUGGGCAUCGAGUUA [Fam2.1 aminoacylation ribozyme variant] ?
Solution: class A
